# System name: CCKA (Cavia porcellus, UniProt Q63931)
# Construct: The pancreatata were removed from male guinea-pigs; from tissue; host or cells: pancreas of male Dunkin Hartley guinea pigs, membranes
# Measurement description: CCKA binding assay, guinea pig pancreas membranes ([125I]-CCK8(S))
# Test context: [125I]-CCK8(S) 200 pM, 0.375 μM PD134,308, 150 min at 21±3° C., pH 7.2
Value kind: pKi (Guinea pig pancreas)
Give the value as a plain number.

Below: 9 compounds and their reported pKi (Guinea pig pancreas).
Task item: Output reported pKi (Guinea pig pancreas) of the compound CC(=O)N1[C@H](CCC(C)C)C(=O)N(Cc2ccccc2)c2ccccc2C(=O)C[C@H]1C(=O)NCC(=O)O on CCKA (Cavia porcellus, UniProt Q63931).
Reply: 5.0

Task item: Output reported pKi (Guinea pig pancreas) of the compound CC(=O)N1[C@H](CC23CC4CC(CC(C4)C2)C3)C(=O)N(Cc2ccccc2)c2ccccc2C(=O)C[C@H]1C(=O)N[C@@H](C)C(=O)O on CCKA (Cavia porcellus, UniProt Q63931).
Reply: 5.0

Task item: Output reported pKi (Guinea pig pancreas) of the compound CC(=O)N1[C@H](CC23CC4CC(CC(C4)C2)C3)C(=O)N(Cc2ccccc2)c2ccccc2C(=O)C[C@H]1C(=O)N1CCC[C@H]1C(=O)O (single isomer, unassigned; isomer 2) [Example 28] on CCKA (Cavia porcellus, UniProt Q63931).
Reply: 4.6

Task item: Output reported pKi (Guinea pig pancreas) of the compound CC(=O)N1[C@H](CC2CCCCCC2)C(=O)N(Cc2ccccc2)c2ccccc2C(=O)C[C@H]1C(=O)NCC(=O)O on CCKA (Cavia porcellus, UniProt Q63931).
Reply: 5.0

Task item: Output reported pKi (Guinea pig pancreas) of the compound CC(=O)N1[C@H](CC2CCCCC2)C(=O)N(Cc2ccccc2)c2ccccc2C(=O)C[C@H]1C(=O)NCC(=O)O on CCKA (Cavia porcellus, UniProt Q63931).
Reply: 4.7

Task item: Output reported pKi (Guinea pig pancreas) of the compound COC(=O)[C@@H]1CC(=O)c2ccccc2N(Cc2ccccc2)C(=O)[C@@H](CC23CC4CC(CC(C4)C2)C3)N1C(C)=O on CCKA (Cavia porcellus, UniProt Q63931).
Reply: 5.4

Task item: Output reported pKi (Guinea pig pancreas) of the compound CC(=O)N1[C@H](CC23CC4CC(CC(C4)C2)C3)C(=O)N(Cc2ccccc2)c2ccccc2C(=O)C[C@H]1C(=O)N(C)CC(=O)O (single isomer, unassigned; isomer 2) [Example 30] on CCKA (Cavia porcellus, UniProt Q63931).
Reply: 5.1

Task item: Output reported pKi (Guinea pig pancreas) of the compound CC(=O)N1[C@H](CC23CC4CC(CC(C4)C2)C3)C(=O)N(Cc2ccccc2)c2ccccc2C(=O)C[C@H]1C(=O)N1CCC[C@H]1C(=O)O (single isomer, unassigned; isomer 1) [Example 27] on CCKA (Cavia porcellus, UniProt Q63931).
Reply: 5.0

Task item: Output reported pKi (Guinea pig pancreas) of the compound CC(=O)N1[C@H](CC23CC4CC(CC(C4)C2)C3)C(=O)N(Cc2ccccc2)c2ccccc2C(=O)C[C@H]1C(=O)N(C)CC(=O)O (single isomer, unassigned; isomer 1) [Example 29] on CCKA (Cavia porcellus, UniProt Q63931).
Reply: 5.2

// next entry
Task item: Output reported pKi (Guinea pig pancreas) of the compound Cc1cccc(NC(=O)N2CCC(c3ccccc3)c3ccccc3N(Cc3ccccc3)C(=O)C2)c1 (stereo not shown) on CCKA (Cavia porcellus, UniProt Q63931).
Reply: 5.9

---

# System name: CCKB receptor (Mus musculus, UniProt P56481)
# Construct: The cortex was dissected, weighed and homogenised in 40 ml ice-cold buffer; tissue Charles River (animals); host or cells: cerebral cortex of male CD1 mice, membranes
# Sequence (P56481 whole entry): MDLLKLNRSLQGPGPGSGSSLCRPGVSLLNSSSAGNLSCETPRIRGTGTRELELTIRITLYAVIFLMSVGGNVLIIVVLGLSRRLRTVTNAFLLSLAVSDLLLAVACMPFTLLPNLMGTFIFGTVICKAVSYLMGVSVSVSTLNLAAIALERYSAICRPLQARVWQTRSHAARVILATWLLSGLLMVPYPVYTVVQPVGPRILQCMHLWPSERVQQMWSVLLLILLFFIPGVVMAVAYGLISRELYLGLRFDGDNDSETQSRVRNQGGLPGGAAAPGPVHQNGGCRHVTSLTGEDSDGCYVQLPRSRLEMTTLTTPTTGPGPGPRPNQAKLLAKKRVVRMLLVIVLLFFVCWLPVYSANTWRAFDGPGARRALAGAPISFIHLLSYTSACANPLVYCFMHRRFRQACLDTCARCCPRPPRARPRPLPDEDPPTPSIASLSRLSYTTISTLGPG
# Measurement description: radioligand binding assay at the CCKB receptor in mouse cortical membranes ([125I]-CCK8S)
# Test context: [125I]-CCK8S 200 pM, 150 min at 21±3° C., pH 7.2, read-out: pKi (Mouse cortex) (converted)
Just a reminder that ties go to f: only Ki strictly below 3 µM counts as t.

Task item: Determine whether this compound shows Ki lower than 3 µM (ties excluded): O=C(O)CCC(=O)N1CCC(=O)c2ccccc2N(Cc2ccccc2)C(=O)C1CC12CC3CC(CC(C3)C1)C2 (racemic)
Reply: f

Task item: Determine whether this compound shows Ki lower than 3 µM (ties excluded): Cc1cccc(NC(=O)N2CCC(=O)c3ccccc3N(CC(=O)OC(C)(C)C)C(=O)C2)c1
Reply: f

Task item: Determine whether this compound shows Ki lower than 3 µM (ties excluded): CC(=O)N1CCC(=O)c2ccccc2N(Cc2ccccc2)C(=O)C1CC12CC3CC(CC(C3)C1)C2 (racemic)
Reply: f

Task item: Determine whether this compound shows Ki lower than 3 µM (ties excluded): CC(=O)N1[C@H](CC23CC4CC(CC(C4)C2)C3)C(=O)N(Cc2ccccc2)c2ccccc2C(=O)C[C@H]1C(=O)N[C@H](C)C(=O)O
Reply: t

Task item: Determine whether this compound shows Ki lower than 3 µM (ties excluded): CC(=O)N1[C@H](CC23CC4CC(CC(C4)C2)C3)C(=O)N(Cc2ccccc2)c2ccccc2C(=O)C[C@H]1C(=O)O
Reply: t

Task item: Determine whether this compound shows Ki lower than 3 µM (ties excluded): COc1cccc(NC(=O)N2CCCc3ccccc3N(CC(=O)OC(C)(C)C)C(=O)C2)c1
Reply: f

Task item: Determine whether this compound shows Ki lower than 3 µM (ties excluded): Cc1cccc(NC(=O)N2CCCc3ccccc3N(Cc3ccccc3)C(=O)C2)c1
Reply: f

Task item: Determine whether this compound shows Ki lower than 3 µM (ties excluded): CCC1CCN(C(=O)Nc2cccc(C)c2)CC(=O)N(Cc2ccccc2)c2ccccc21 (centres unmarked)
Reply: f

Task item: Determine whether this compound shows Ki lower than 3 µM (ties excluded): CC(=O)N1[C@H](CC23CC4CC(CC(C4)C2)C3)C(=O)N(Cc2ccccc2F)c2ccccc2C(=O)C[C@H]1C(=O)N[C@@H](C)C(=O)NS(C)(=O)=O
Reply: t

Task item: Determine whether this compound shows Ki lower than 3 µM (ties excluded): CC(=O)N1[C@H](CC23CC4CC(CC(C4)C2)C3)C(=O)N(C)c2ccccc2C(=O)C[C@H]1C(=O)NCC(=O)O
Reply: f

Others:
Task item: Determine whether this compound shows Ki lower than 3 µM (ties excluded): CC(=O)N1[C@@H](C(=O)NCC(=O)O)CC(=O)c2ccccc2N(Cc2ccccc2F)C(=O)[C@@H]1CC12CC3CC(CC(C3)C1)C2
Reply: t

---

# System name: CCKA (Cavia porcellus)
# Construct: The pancreatata were removed from male guinea-pigs; from tissue; host or cells: pancreas of male Dunkin Hartley guinea pigs, membranes
# Sequence (Q63931 1-430): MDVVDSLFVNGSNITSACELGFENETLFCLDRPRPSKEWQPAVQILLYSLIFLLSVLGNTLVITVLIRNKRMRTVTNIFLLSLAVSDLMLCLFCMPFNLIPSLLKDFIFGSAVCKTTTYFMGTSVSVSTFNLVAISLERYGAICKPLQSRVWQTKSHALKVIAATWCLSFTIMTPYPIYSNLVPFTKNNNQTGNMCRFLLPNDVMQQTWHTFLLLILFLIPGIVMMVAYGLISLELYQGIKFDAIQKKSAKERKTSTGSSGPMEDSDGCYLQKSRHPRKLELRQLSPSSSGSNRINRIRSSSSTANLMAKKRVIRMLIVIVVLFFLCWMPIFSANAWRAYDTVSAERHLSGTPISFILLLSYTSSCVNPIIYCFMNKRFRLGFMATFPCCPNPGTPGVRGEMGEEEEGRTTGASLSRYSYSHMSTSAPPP
# Measurement description: CCKA binding assay, guinea pig pancreas membranes ([125I]-CCK8(S))
# Test context: [125I]-CCK8(S) 200 pM, 0.375 μM PD134,308, 150 min at 21±3° C., pH 7.2, read-out: pKi (Guinea pig pancreas) (converted)
Value kind: Ki (nM)
Could you give me the number in nM? Just the number is fine.

Below: 2 compounds and their reported Ki.
Task item: State its Ki for this compound: CCC1CCN(C(=O)Nc2ccc(Cl)c(Cl)c2)CC(=O)N(Cc2ccccc2)c2ccccc21 (stereo not shown)
Reply: 200

Task item: State its Ki for this compound: CC(=O)N1[C@H](CC23CC4CC(CC(C4)C2)C3)C(=O)N(Cc2ccccc2)c2ccccc2C(=O)C[C@H]1C(=O)NC(C)(C)C(=O)O
Reply: 6310

Others:
Task item: State its Ki for this compound: Cc1cccc(NC(=O)N2CCC(=O)c3ccccc3N(Cc3ccccc3)C(=O)C2)c1
Reply: 316

Task item: State its Ki for this compound: O=C(OCc1ccccc1)c1cccc(NC(=O)N2CCC(=O)c3ccccc3N(Cc3ccccc3)C(=O)C2)c1
Reply: 3980

---

Reported values of pKi (Mouse cortex) for individual entries
# System name: CCKB receptor (Mus musculus, UniProt P56481)
# Construct: The cortex was dissected, weighed and homogenised in 40 ml ice-cold buffer; tissue Charles River (animals); host or cells: cerebral cortex of male CD1 mice, membranes
# Measurement description: radioligand binding assay at the CCKB receptor in mouse cortical membranes ([125I]-CCK8S)
# Test context: [125I]-CCK8S 200 pM, 150 min at 21±3° C., pH 7.2
Give the value as a plain number.

Below: 2 compounds and their reported pKi (Mouse cortex).
Task item: State its pKi (Mouse cortex) for this compound: CC(=O)N1[C@H](CC23CC4CC(CC(C4)C2)C3)C(=O)N(Cc2ccccc2)c2ccccc2C(=O)C[C@H]1C(=O)N1CCC[C@H]1C(=O)O (single isomer, unassigned; isomer 1) [Example 27]
Reply: 5.0

Task item: State its pKi (Mouse cortex) for this compound: CC(=O)N1[C@H](CC23CC4CC(CC(C4)C2)C3)C(=O)N(Cc2ccccc2)c2ccccc2C(=O)C[C@H]1C(=O)N(C)CC(=O)O (single isomer, unassigned; isomer 2) [Example 30]
Reply: 5.0

// next entry
Task item: State its pKi (Mouse cortex) for this compound: Cc1cccc(NC(=O)N2CCC(c3ccccc3)c3ccccc3N(Cc3ccccc3)C(=O)C2)c1 (stereo not drawn)
Reply: 5.8

Where these numbers come from: patent US6057311A
